Species: Canis familiaris
Test: Percent change from control in the rate of rise of phase 0 of the action potential at 10 uM concentration on Canine Purkinje fibers.
Design: species or system Canis lupus familiaris, Purkinje fiber
Conditions: dog, in vitro
readout-type: Vmax (%)
Field format: number, assumed %, no unit text.

Worked examples, 5 molecules total:
CCN(CC)CCCNC(=O)c1cc2ccccc2[nH]1 = -7
CCN(CC)CCNC(=O)c1c(O)cc(C)nc1C = 0.3
CCN(CC)CCNC(=O)c1cc2ccccc2[nH]1 = -2.3
CCN(CC)CCCNC(=O)c1c(O)cc(C)nc1C = 4.6
CCN(CC)CCNC(=O)c1cc(Cl)c(N)cc1OC [METOCLOPRAMIDE] = -3

Then there is this molecule:
Q: Identify measured Vmax associated with CCN(CC)CCNC(=O)c1cc2cccc(OCc3ccccc3)c2[nH]1
A: -37.7
